The reported numbers originate from patent US10519114B2.

endpoint: pKi
Note on units: pKi is unitless, being -log10 of a concentration expressed in mol/L.

Param readout = pKi; param system = rat δ (C6-DOR) opioid receptor (Rattus norvegicus, UniProt P33533); param query = Cc1cc(O)cc(C)c1C[C@H](N)C(=O)NC1CCc2ccc(Cc3ccccc3)cc21 (stereo partly drawn) ; response: value
Sequence (P33533 whole entry): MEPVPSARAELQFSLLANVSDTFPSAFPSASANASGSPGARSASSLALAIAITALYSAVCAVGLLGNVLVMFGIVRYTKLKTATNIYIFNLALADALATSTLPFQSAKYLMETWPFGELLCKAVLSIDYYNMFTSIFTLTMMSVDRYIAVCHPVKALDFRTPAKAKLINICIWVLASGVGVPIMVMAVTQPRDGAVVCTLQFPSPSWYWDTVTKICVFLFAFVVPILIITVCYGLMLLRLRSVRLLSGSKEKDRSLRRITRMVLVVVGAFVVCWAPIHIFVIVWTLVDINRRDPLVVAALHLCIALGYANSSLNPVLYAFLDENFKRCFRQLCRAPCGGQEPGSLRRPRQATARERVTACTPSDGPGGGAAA
7.52

Lab note: need pKi for CC(=O)N1CC[C@@H](NC(=O)[C@@H](N)Cc2c(C)cc(O)cc2C)c2cc(Oc3ccc(Cl)cc3)ccc21 on rat δ (C6-DOR) opioid receptor (Rattus norvegicus, UniProt P33533), anyone have it?
8.51

Form entry - test system: rat δ (C6-DOR) opioid receptor (Rattus norvegicus, UniProt P33533); read-out: pKi; molecule: COc1ccccc1Oc1ccc2c(c1)[C@H](NC(=O)[C@@H](N)Cc1c(C)cc(O)cc1C)CCN2C(C)=O
8.57

Query the reported pKi for rat δ (C6-DOR) opioid receptor (Rattus norvegicus, UniProt P33533); item: Cc1cc(O)cc(C)c1C[C@H](N)C(=O)N[C@@H]1CCNc2c(CN3CCCCC3)cc(Cc3ccccc3)cc21
8.62

Under rat δ (C6-DOR) opioid receptor (Rattus norvegicus, UniProt P33533): pKi value of Cc1cc(O)cc(C)c1C[C@H](N)C(=O)N[C@H]1CCOc2ccc(Cc3ccccc3)cc21 ?
6.59

Write down the reported pKi of Cc1cc(O)cc(C)c1C[C@H](N)C(=O)N[C@@H]1CCNc2ccc(Sc3ccccc3)cc21 , test system: rat δ (C6-DOR) opioid receptor (Rattus norvegicus, UniProt P33533).
8.29

Form entry - test system: rat δ (C6-DOR) opioid receptor (Rattus norvegicus, UniProt P33533); read-out: pKi; molecule: Cc1cc(O)cc(C)c1C[C@H](N)C(=O)N(C1CC1)[C@@H]1CCNc2ccc(Cc3ccccc3)cc21
7.63

Any idea what pKi came out for Cc1cc(O)cc(C)c1C[C@H](N)C(=O)N[C@H]1CCNc2cc(Cc3ccccc3)ccc21 on rat δ (C6-DOR) opioid receptor (Rattus norvegicus, UniProt P33533)?
6.53

Identify the measured pKi of Cc1cc(O)cc(C)c1C[C@H](N)C(=O)N[C@@H]1CCNc2c(C(=O)Nc3ccccc3)cc(Cc3ccccc3)cc21 for rat δ (C6-DOR) opioid receptor (Rattus norvegicus, UniProt P33533).
8.66

Reported pKi for rat δ (C6-DOR) opioid receptor (Rattus norvegicus, UniProt P33533), given CCCc1cc(Br)cc2c1NCC[C@H]2NC(=O)[C@@H](N)Cc1c(C)cc(O)cc1C ?
7.34

Kindly state the measured pKi obtained for Cc1ccc(Cc2ccc3c(c2)[C@H](NC(=O)[C@@H](N)Cc2c(C)cc(O)cc2C)CCN3)cc1 with rat δ (C6-DOR) opioid receptor (Rattus norvegicus, UniProt P33533).
8.21

# get_value(readout= pKi, system= rat δ (C6-DOR) opioid receptor (Rattus norvegicus, UniProt P33533)) for Cc1cc(O)cc(C)c1C[C@H](N)C(=O)N[C@@H]1CCNc2ccc(CN3CCC[C@H]4CCCC[C@@H]43)cc21
8.02

Return pKi measured with rat δ (C6-DOR) opioid receptor (Rattus norvegicus, UniProt P33533) given this molecule: CCc1cc(Cc2ccccc2)cc2c1NCC[C@H]2NC(=O)[C@@H](N)Cc1c(C)cc(O)cc1C
8.34

What is its pKi for rat δ (C6-DOR) opioid receptor (Rattus norvegicus, UniProt P33533)? Entry: Cc1cc(O)cc(C)c1C[C@H](N)C(=O)N[C@@H]1CCNc2ccc(Cc3cc4ccccc4o3)cc21
8.32

Please state recorded pKi (tested on rat δ (C6-DOR) opioid receptor (Rattus norvegicus, UniProt P33533)) of N[C@@H](Cc1c(Cl)cc(O)cc1Cl)C(=O)N[C@@H]1CCCc2ccc(Oc3ccccc3)cc21
6.98
